This section presents binders with their documented IC50, Huvec IL-8 assay vs. full length IL-33 cell lysate values.
Molecular target: T1, Full-length human IL-33 (amino acids 1-270), HEK293-EBNA cell lysate (human, UniProt O95760 1-270)
T1 sequence (looked up): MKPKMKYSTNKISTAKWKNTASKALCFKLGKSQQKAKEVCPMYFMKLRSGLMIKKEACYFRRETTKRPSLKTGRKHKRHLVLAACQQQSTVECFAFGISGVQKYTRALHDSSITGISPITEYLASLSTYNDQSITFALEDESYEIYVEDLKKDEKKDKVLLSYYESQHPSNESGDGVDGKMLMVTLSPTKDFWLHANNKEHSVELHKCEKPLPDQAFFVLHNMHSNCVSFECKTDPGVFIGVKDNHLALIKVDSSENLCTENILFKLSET
Test: cell-based or functional assay
measured_endpoint: IC50, Huvec IL-8 assay vs. full length IL-33 cell lysate (pM)

1. 33_640201 IgG1 (antibody, V domains shown, IgG1; also called ZZ1JMY-H09) VH: EVQLLESGGGLVQPGGSLRLSCAASGFTFSSYAMSWVRQAPGKGLEWVSSIDAISSSTYYADSVKGRFTISRDNSKNTLYLQMNSLRAEDTAVYYCSRQKFMQLWGGGLRYPFGYWGQGTMVTVSS VL: SYVLTQPPSVSVSPGQTASITCSGERMGDKYAAWYQQKPGQSPVLVIYQDTKRPSGIPERFSGSNSGNTATLTISGTQAVDEADYYCGVLKQDTGVFGGGTKVTVL
101
2. 33_640082-6 IgG1 (antibody, V domains shown, IgG1) VH: EVQLLESGGGLVQPGGSLRLSCAASGFTFSSYAMSWVRQAPGKGLEWVSGISGIDTSTYYADSVKGRFTISRDNSKNTLYLQMNSLRAEDTAVYYCARQKFMQLWGGGLRYPFGYWGQGTMVTVSS VL: SYVLTQPPSVSVSPGQTASITCSGERMGDKYAAWYQQKPGQSPVLVIYRDTKRPSGIPERFSGSNSGNTATLTISGTQAMDEADYYCGVLKQDTGVFGGGTKVTVL
97
3. 33_640082-7 IgG1 (antibody, V domains shown, IgG1) VH: EVQLLESGGGLVQPGGSLRLSCAASGFTFSSYAMSWVRQAPGKGLEWVSGISAIDQSTYYADSVKGRFTISRDNSKNTLYLQMNSLRAEDTAVYYCARQKFMQLWGGGLRYPFGYWGQGTMVTVSS VL: SYVLTQPPSVSVSPGQTASITCSGERMGDKYAAWYQQKPGQSPVLVIYRDTKRPSGIPERFSGSNSGNTATLTISGTQAMDEADYYCGVLKQDTGVFGGGTKVTVL
95
4. 33_640086-6 IgG1 (antibody, V domains shown, IgG1) VH: EVQLLESGGGLVQPGGSLRLSCAASGFTFSSYAMSWVRQAPGKGLEWVSGISGIDTSTYYADSVKGRFTISRDNSKNTLYLQMNSLRAEDTAVYYCARDKFMQLWGGGLRYPFGYWGQGTMVTVSS VL: SYVLTQPPSVSVSPGQTASITCSGERMGDKYAAWYQQKPGQSPVLVIYRDTKRPSGIPERFSGSNSGNTATLTISGTQAMDEADYYCEVKVKDTGVFGGGTKVTVL
81
5. 33_640087-7 IgG1 (antibody, V domains shown, IgG1) VH: EVQLLESGGGLVQPGGSLRLSCAASGFTFSSYAMSWVRQAPGKGLEWVSGISAIDQSTYYADSVKGRFTISRDNSKNTLYLQMNSLRAEDTAVYYCARQKFMQLWGGGLRYPFGYWGQGTMVTVSS VL: SYVLTQPPSVSVSPGQTASITCSGEGMGDKYAAWYQQKPGQSPVLVIYRDTKRPSGIPERFSGSNSGNTATLTISGTQAMDEADYYCGVIQDNTGVFGGGTKVTVL
73
